The values you see were collected from the OligoGym collection.

- Study System: UBE2D3
- Method Description: reporter assay of Huesken 2005
- Condition Parameters: siRNA
Oligonucleotides are given in HELM: sugar(base)linkage, 5' to 3'; d 2'-deoxyribose, r ribose, m 2'-O-methylribose, p phosphate. ss, as = sense and antisense strand
Tick 1 (yes) if normalised inhibition (eCFP-eYFP dual reporter) is 80% or greater. Tick 0 (no) if normalised inhibition (eCFP-eYFP dual reporter) is less than 80%.

Look over these answered cases.
Substance	Study System	Classification
RNA1{r(U)p.r(U)p.r(U)p.r(C)p.r(A)p.r(U)p.r(U)p.r(G)p.r(G)p.r(C)p.r(A)p.r(A)p.r(G)p.r(C)p.r(C)p.r(A)p.r(C)p.r(A)p.r(A)p.d(T)p.d(T)}|RNA2{r(U)p.r(U)p.r(G)p.r(U)p.r(G)p.r(G)p.r(C)p.r(U)p.r(U)p.r(G)p.r(C)p.r(C)p.r(A)p.r(A)p.r(U)p.r(G)p.r(A)p.r(A)p.r(A)p.d(C)p.d(A)}$$$RNA1{StrandType:ss}|RNA2{StrandType:as}$	UBE2D3	1 (yes)
RNA1{r(A)p.r(C)p.r(G)p.r(G)p.r(A)p.r(U)p.r(C)p.r(U)p.r(A)p.r(U)p.r(A)p.r(A)p.r(A)p.r(A)p.r(C)p.r(A)p.r(G)p.r(A)p.r(C)p.d(T)p.d(T)}|RNA2{r(G)p.r(U)p.r(C)p.r(U)p.r(G)p.r(U)p.r(U)p.r(U)p.r(U)p.r(A)p.r(U)p.r(A)p.r(G)p.r(A)p.r(U)p.r(C)p.r(C)p.r(G)p.r(U)p.d(G)p.d(C)}$$$RNA1{StrandType:ss}|RNA2{StrandType:as}$	UBE2D3	0 (no)

Q: I'd appreciate it if you could say whether `RNA1{r(U)p.r(G)p.r(C)p.r(A)p.r(U)p.r(U)p.r(U)p.r(A)p.r(C)p.r(A)p.r(A)p.r(C)p.r(A)p.r(A)p.r(G)p.r(A)p.r(A)p.r(U)p.r(U)p.d(T)p.d(T)}|RNA2{r(A)p.r(A)p.r(U)p.r(U)p.r(C)p.r(U)p.r(U)p.r(G)p.r(U)p.r(U)p.r(G)p.r(U)p.r(A)p.r(A)p.r(A)p.r(U)p.r(G)p.r(C)p.r(A)p.d(A)p.d(C)}$$$RNA1{StrandType:ss}|RNA2{StrandType:as}$` has normalised inhibition (eCFP-eYFP dual reporter) at least equal to 80%.
Result: 1 (yes)

Q: Item: `RNA1{r(A)p.r(A)p.r(G)p.r(G)p.r(U)p.r(U)p.r(G)p.r(C)p.r(A)p.r(U)p.r(U)p.r(U)p.r(A)p.r(C)p.r(A)p.r(A)p.r(C)p.r(A)p.r(A)p.d(T)p.d(T)}|RNA2{r(U)p.r(U)p.r(G)p.r(U)p.r(U)p.r(G)p.r(U)p.r(A)p.r(A)p.r(A)p.r(U)p.r(G)p.r(C)p.r(A)p.r(A)p.r(C)p.r(C)p.r(U)p.r(U)p.d(A)p.d(G)}$$$RNA1{StrandType:ss}|RNA2{StrandType:as}$`
Result: 1 (yes)

Q: Item: `RNA1{r(A)p.r(C)p.r(A)p.r(A)p.r(U)p.r(U)p.r(C)p.r(A)p.r(U)p.r(U)p.r(U)p.r(U)p.r(C)p.r(C)p.r(U)p.r(A)p.r(C)p.r(A)p.r(G)p.d(T)p.d(T)}|RNA2{r(C)p.r(U)p.r(G)p.r(U)p.r(A)p.r(G)p.r(G)p.r(A)p.r(A)p.r(A)p.r(A)p.r(U)p.r(G)p.r(A)p.r(A)p.r(U)p.r(U)p.r(G)p.r(U)p.d(C)p.d(A)}$$$RNA1{StrandType:ss}|RNA2{StrandType:as}$`
Result: 0 (no)

Q: Item: `RNA1{r(U)p.r(A)p.r(U)p.r(G)p.r(G)p.r(G)p.r(A)p.r(C)p.r(C)p.r(U)p.r(A)p.r(A)p.r(U)p.r(G)p.r(A)p.r(C)p.r(A)p.r(G)p.r(C)p.d(T)p.d(T)}|RNA2{r(G)p.r(C)p.r(U)p.r(G)p.r(U)p.r(C)p.r(A)p.r(U)p.r(U)p.r(A)p.r(G)p.r(G)p.r(U)p.r(C)p.r(C)p.r(C)p.r(A)p.r(U)p.r(A)p.d(A)p.d(T)}$$$RNA1{StrandType:ss}|RNA2{StrandType:as}$`
Result: 0 (no)

Q: Item: `RNA1{r(A)p.r(G)p.r(C)p.r(A)p.r(C)p.r(A)p.r(A)p.r(U)p.r(G)p.r(U)p.r(U)p.r(C)p.r(U)p.r(G)p.r(C)p.r(A)p.r(G)p.r(G)p.r(U)p.d(T)p.d(T)}|RNA2{r(A)p.r(C)p.r(C)p.r(U)p.r(G)p.r(C)p.r(A)p.r(G)p.r(A)p.r(A)p.r(C)p.r(A)p.r(U)p.r(U)p.r(G)p.r(U)p.r(G)p.r(C)p.r(U)p.d(G)p.d(G)}$$$RNA1{StrandType:ss}|RNA2{StrandType:as}$`
Result: 1 (yes)

Q: Item: `RNA1{r(G)p.r(A)p.r(C)p.r(U)p.r(A)p.r(C)p.r(C)p.r(C)p.r(C)p.r(U)p.r(U)p.r(C)p.r(A)p.r(A)p.r(A)p.r(C)p.r(C)p.r(A)p.r(C)p.d(T)p.d(T)}|RNA2{r(G)p.r(U)p.r(G)p.r(G)p.r(U)p.r(U)p.r(U)p.r(G)p.r(A)p.r(A)p.r(G)p.r(G)p.r(G)p.r(G)p.r(U)p.r(A)p.r(G)p.r(U)p.r(C)p.d(T)p.d(G)}$$$RNA1{StrandType:ss}|RNA2{StrandType:as}$`
Result: 1 (yes)

Q: Item: `RNA1{r(A)p.r(A)p.r(G)p.r(C)p.r(C)p.r(A)p.r(C)p.r(A)p.r(A)p.r(U)p.r(U)p.r(A)p.r(U)p.r(G)p.r(G)p.r(G)p.r(A)p.r(C)p.r(C)p.d(T)p.d(T)}|RNA2{r(G)p.r(G)p.r(U)p.r(C)p.r(C)p.r(C)p.r(A)p.r(U)p.r(A)p.r(A)p.r(U)p.r(U)p.r(G)p.r(U)p.r(G)p.r(G)p.r(C)p.r(U)p.r(U)p.d(G)p.d(C)}$$$RNA1{StrandType:ss}|RNA2{StrandType:as}$`
Result: 0 (no)
